- procedure_summary: Aqueous solubility of the active compound
- Type: physicochemical
- experimental_parameters: water; at about room temperature
measured_endpoint: solubility

Ask: Return reported solubility. Input compound: NC(=O)[C@@H](CCC(F)(F)F)N(Cc1ccc(-c2ncon2)cc1F)S(=O)(=O)c1ccc(Cl)cc1
Result: < 1 µg/mL

The reported numbers originate from patent US8252821B2.
